Tested on: innate immune genes including ISG54, ISG56, IL-8 and Groβ
PROTOCOL_DESCRIPTION: poly
Format: cell-based, human
MEASUREMENT_CONDITIONS: Homo sapiens, read-out: IC50 against all innate immune genes (range)
pIC50: −log10 of the molar value.
REPORTED_METRIC: pIC50

Below: 2 compounds and their reported pIC50.
COMPOUND | pIC50
Cc1sc2c(c1C)C(c1ccc(Cl)cc1)=N[C@@H](CC(=O)OC(C)(C)C)c1nnc(C)n1-2 [(+)-JQ1, reference compound] | 5.41 to 5.86
Cc1cc(/N=N/c2ccc(S(=O)(=O)NC3CCCC3)cc2)c(N)cc1O | 6.07 to 6.31

Consider now this further compound.
Query: Look up innate immune genes including ISG54, ISG56, IL-8 and Groβ data: pIC50 of Cc1cc(/N=N/c2ccc3c(c2)CCC(=O)N3)c(N)cc1O , then report it.
Result: 6.07 to 6.31
